Origin of measurements: patent US20120165339A1

Target: OX1 (Homo sapiens, UniProt O43613)
Sequence (O43613 1-425): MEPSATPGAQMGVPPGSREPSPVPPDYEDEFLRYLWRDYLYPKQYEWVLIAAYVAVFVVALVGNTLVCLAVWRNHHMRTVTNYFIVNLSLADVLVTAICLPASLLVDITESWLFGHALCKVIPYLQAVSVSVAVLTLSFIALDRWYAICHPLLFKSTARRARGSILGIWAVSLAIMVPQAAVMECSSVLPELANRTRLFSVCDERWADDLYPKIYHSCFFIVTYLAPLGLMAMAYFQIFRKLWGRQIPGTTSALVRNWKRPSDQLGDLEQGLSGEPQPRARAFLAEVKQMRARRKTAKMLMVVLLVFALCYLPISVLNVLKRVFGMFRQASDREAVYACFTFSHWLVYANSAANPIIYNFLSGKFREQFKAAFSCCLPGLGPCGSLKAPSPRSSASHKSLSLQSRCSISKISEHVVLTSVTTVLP
Assay: Antagonism PLAP reporter assay, HEK-293 cells expressing human OX1
Conditions: HEK-293, 1 nM human OX-A; IC50 converted to Ki by Cheng-Prusoff equation
Method: The antagonistic function of the compound of the present invention to prevent the activation of OX2 and OX1 by orexin-A (OX-A), which is a natural peptide agonist, was measured using a cell-based reporter assay. A HEK-293 cell line expressing genetically recombinant human OX2 (accession No. NM_001526.3) or a HEK-293 cell line expressing genetically recombinant human OX1 (accession No. NM_001525.2), which had pBabeCLIH as expression vector, was used. […]
pKi: −log10 of the molar value.
VALUE KIND: pKi

(1) COc1ccc(OCC2(c3ccccc3)CC2C(=O)Nc2ccc(F)cn2)cc1OC (stereo not shown) [Example 10]
(2) COc1cccc(NC(=O)C2CC2(COc2ccc(OC)c(OC)c2)c2ccccc2)c1 (stereo not shown) [Example 34]
(3) Cc1nc(C(F)(F)F)nn1CC[C@@]1(c2ccccc2)C[C@H]1C(=O)Nc1ccc(F)cn1 [Example 121]
(4) COc1ccc(OCC2(c3ccccc3)CC2C(=O)Nc2cc(C)ns2)cc1OC (stereo not shown) [Example 40]
(5) COc1ccc(OCC2(c3ccccc3)CC2C(=O)Nc2ccccc2-c2nnc[nH]2)cc1OC (stereo not shown) [Example 35]
// ascending sort on pKi for the entries above List the labels in the requested order.
5, 4, 3, 1, 2
(5: 5.72, 4: 6.12, 3: 6.39, 1: 7.16, 2: 7.62)

(1) COc1ccc(OCC2(c3ccccc3)CC2C(=O)Nc2cncc(Cl)c2)cc1OC (stereo not shown) [Example 11]
(2) Cc1noc2cc(OCC3(c4ccccc4)CC3C(=O)Nc3ccc(C#N)cn3)ccc12 (stereo not shown) [Example 61]
Hey, between 1 and 2 which has a smaller measured pKi? Returns: label corresponding to the selected item.
1

(1) COc1ccc(OCC2(c3ccccc3)CC2C(=O)Nc2cc(C)ccn2)cc1OC (stereo not shown) [Example 36]
(2) COc1ccc(OC[C@@]2(c3ccccc3)C[C@H]2C(=O)Nc2ccccn2)cc1OC [Example 41]
Hey, between 1 and 2 which has a smaller measured pKi? Returns: label corresponding to the selected item.
1
(1: 6.16, 2: 6.53)

(1) CCn1cc(OCC2(c3ccccc3)CC2C(=O)Nc2ccc(Cl)cn2)ccc1=O (stereo not shown) [Example 54]
(2) COc1ccc(OC[C@@]2(c3ccccc3)C[C@H]2C(=O)Nc2ccc(C#N)cn2)cc1OC [Example 4]
Hey, between 1 and 2 which has a smaller measured pKi? Returns: label corresponding to the selected item.
2
(2: 7.19, 1: 7.43)
